System: cardiomyocytic cell line derived from human ventricular heart tissue
Assay: Cell viability in cardiomyocyte compound screen (CellTiter-Glo)
Format: cell-based
Settings: human, 24 h, 1000 nM
observable: Viability

Before answering, review these 6 worked examples.
query: Fill in the blank: the reported Viability of COC(=O)C=Cc1ccccc1 [Methyl cinnamate] is ____.
result: >75%

query: Fill in the blank: the reported Viability of `Nc1ncn([C@@H]2O[C@H](CO)[C@@H](O)[C@H]2O)c(=O)n1` is ____.
result: 50-75%

query: Fill in the blank: the reported Viability of `C[C@@H]1COCCN1c1cc(=O)n2c(n1)N(Cc1cncc(Cl)c1)[C@H](C(F)(F)F)CC2` is ____.
result: 100.0%

query: Fill in the blank: the reported Viability of NC1=N[C@@]2(c3cc(NC(=O)c4ccc(F)cn4)ccc3F)COC[C@H]2CS1 [LY288672, reference compound] is ____.
result: >75%

query: Fill in the blank: the reported Viability of NC(=O)N1c2ccccc2C=Cc2ccccc21 [Carbamazepine] is ____.
result: >75%

query: Fill in the blank: the reported Viability of `O=c1ncn2nc(Sc3ccc(F)cc3F)ccc2c1-c1c(Cl)cccc1Cl` is ____.
result: >75%

We now examine a further compound.
query: Fill in the blank: the reported Viability of COc1cc(O)c2c(c1)oc(=O)c1c3cc(O)c(O)cc3oc21 [Wedelolactone, reference compound] is ____.
result: >75%

* * *

Tested on: neuronal cell line derived from human neuroblastoma
Experiment: Small molecule compound screen of gigasome production in neuronal monocultures
Settings: neuronal cells, dose 10000 nM, 24 hours
The reader will find reported Number of Gigasomes Produced values listed item by item below.

Before answering, review these 6 worked examples.
query: Fill in the blank: the reported Number of Gigasomes Produced of `CC[C@H](CO)Nc1nc(NCc2ccccc2)c2ncn(C(C)C)c2n1` is ____.
result: 15-20

query: Fill in the blank: the reported Number of Gigasomes Produced of `O=C(Nc1ccc(O)c(C(=O)O)c1)c1cccc(NC(=O)c2ccco2)c1` is ____.
result: 20-25

query: Fill in the blank: the reported Number of Gigasomes Produced of CCCCCCCCCCCCCC[N+](C)(C)C.[Br-] [MiTMAB, reference compound] is ____.
result: 55-65

query: Fill in the blank: the reported Number of Gigasomes Produced of Nc1ccccc1NC(=O)c1ccc(CNC(=O)OCc2cccnc2)cc1 [Entinostat, reference compound] is ____.
result: 35-45

query: Fill in the blank: the reported Number of Gigasomes Produced of C/C=C1/[C@H](O[C@@H]2O[C@H](CO)[C@@H](O)[C@H](O)[C@H]2O)OC=C(C(=O)OC)[C@H]1CC(=O)OCCc1ccc(O)c(O)c1 [Oleuropein, reference compound] is ____.
result: 25-30

query: Fill in the blank: the reported Number of Gigasomes Produced of N#C/C(=C\c1cn(-c2ccccc2)c2ccccc12)C(=O)O [UK-5099, reference compound] is ____.
result: 10-15

Next:
query: Fill in the blank: the reported Number of Gigasomes Produced of `C=C(C)[C@@H]1CC[C@]2(CO)CC[C@]3(C)[C@H](CC[C@@H]4[C@@]5(C)CC[C@H](O)C(C)(C)[C@@H]5CC[C@]43C)[C@@H]12` is ____.
result: 35-45
